This collection of values is drawn from PubChem BioAssay AID1918938.

System: 556581-035-R-J1-PDC complex spheroid viability;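 note: spheroids exposed to agents for seven days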
Assay: Anticancer human tumor 556581-035-R-J1-PDC patient-derived ovarian carcinoma cell line growth inhibition
Conditions: curve of first compound; second compound 3.16 µM
From the text: Multicellular complex tumor spheroid response to LSD1 Inhibitor Iadademstat in combination with a variety of drugs and investigational agents in selected tumor cell lines The current study was undertaken to assess response to LSD1 inhibitors in combination with standard-of-care drugs and investigational agents in solid tumor complex spheroid models as well as in the K-562 leukemia. […] Compounds. […] If the clinical Cmax for an agent had not been determined, the highest concentration tested was 10 microM. […]
IC50 values, listed per item
Enter your answer as a number in nM; do not include the unit.

Examples with answers:
Compound | Measurement units | IC50
CC(C)CC(NC(=O)CNC(=O)c1cc(Cl)ccc1Cl)B1OC(=O)CC(CC(=O)O)(C(=O)O)O1 (centres undefined) + NC1CCC(NC2CC2c2ccccc2)CC1 | nM | 4.6
Nc1ccccc1NC(=O)c1ccc(CNC(=O)OCc2cccnc2)cc1 + NC1CCC(NC2CC2c2ccccc2)CC1 | nM | 69.9
CC1COCCN1c1cc(-c2ccnn2C)c2ccnc(-c3ccn[nH]3)c2n1 (centres undefined) + NC1CCC(NC2CC2c2ccccc2)CC1 | nM | 21.6
O=C(C=Cn1cnc(-c2cc(C(F)(F)F)cc(C(F)(F)F)c2)n1)NNc1cnccn1 + NC1CC1c1ccc(-c2cccc(O)c2)cc1 | nM | 73.4
Nc1ccn(C2OC(CO)C(O)C2(F)F)c(=O)n1 (centres undefined) + NC1CC1c1ccc(-c2cccc(O)c2)cc1 | nM | 1.75

The record that follows has no IC50 shown yet.
API: value(readout= IC50, system= 556581-035-R-J1-PDC complex spheroid viability, query= COc1cc(Nc2ncc3c(n2)-c2ccc(Cl)cc2C(c2c(F)cccc2OC)=NC3)ccc1C(=O)O + NC1CCC(NC2CC2c2ccccc2)CC1 );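 note: spheroids exposed to agents for seven days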
213
